# test_description: The drug is tested on Subdoligranulum variabile strain: DSM15176 for biotransformation. The drug concentrations were measured before and after a 12-h incubation by liquid-chromatography-coupled mass spectrometry (LC–MS)
# setup_conditions: 2 µM
parameter_measured: Bacterial Biotransformation

# count of solved cases: 5
compound	Bacterial Biotransformation
O=c1n(CCCN2CCN(c3cccc(Cl)c3)CC2)nc2ccccn12	Compound NOT metabolized
C[C@@H]1CC[C@H]2[C@@H](C)C(=O)O[C@@H]3O[C@@]4(C)CC[C@@H]1[C@]32OO4	Compound metabolized
CCN(CC)CCNC(=O)c1cc(Cl)c(N)cc1OC [METOCLOPRAMIDE]	Compound NOT metabolized
Cc1nc2n(c(=O)c1CCN1CCC(c3noc4cc(F)ccc34)CC1)CCCC2O (stereo unspecified)	Compound metabolized
CN1CCC[C@@H]1CCO[C@](C)(c1ccccc1)c1ccc(Cl)cc1.O=C(O)/C=C/C(=O)O [CLEMASTINE FUMARATE]	Compound NOT metabolized

We next turn to a different compound, shown below.
Per the record, O=C1[C@H](CC[C@H](O)c2ccc(F)cc2)[C@@H](c2ccc(O)cc2)N1c1ccc(F)cc1 has Bacterial Biotransformation of Compound NOT metabolized

###

# test_description: The drug is tested on Bacteroides fragilis strain: HMW610 for biotransformation. The drug concentrations were measured before and after a 12-h incubation by liquid-chromatography-coupled mass spectrometry (LC–MS)
# setup_conditions: 2 µM
parameter_measured: Bacterial Biotransformation

compound	parameter_measured	assay_result
COC(=O)[C@H](c1ccccc1Cl)N1CCc2sccc2C1.O=S(=O)(O)O [CLOPIDOGREL BISULFATE]	Bacterial Biotransformation	Compound metabolized
Cc1cn([C@H]2C[C@H](N=[N+]=[N-])[C@@H](CO)O2)c(=O)[nH]c1=O	Bacterial Biotransformation	Compound NOT metabolized
O=C(O)c1cc(/N=N/c2ccc(S(=O)(=O)Nc3ccccn3)cc2)ccc1O	Bacterial Biotransformation	Compound metabolized
COc1ccc(C(CN(C)C)C2(O)CCCCC2)cc1 (stereo not given)	Bacterial Biotransformation	Compound NOT metabolized

Per the record, CCS(=O)(=O)CCn1c([N+](=O)[O-])cnc1C has Bacterial Biotransformation of Compound metabolized

###

# setup_conditions: bacteroides eggerthii, 12 h, 2 µM
# Description: The drug is tested on Bacteroides eggerthii strain: DSM20697 for biotransformation. The drug concentrations were measured before and after a 12-h incubation by liquid-chromatography-coupled mass spectrometry (LC–MS)

compound	Bacterial Biotransformation
CC(=O)CC(c1ccccc1)c1c(O)c2ccccc2oc1=O (centres undefined)	Compound NOT metabolized
CC(C)(C)NC[C@H](O)COc1ccccc1C1CCCC1.CC(C)(C)NC[C@H](O)COc1ccccc1C1CCCC1.O=S(=O)(O)O [PENBUTOLOL SULFATE]	Compound NOT metabolized
COC(=O)C1=C(C)NC(C)=C(C(=O)OC(C)C)C1c1cccc2nonc12 (centres undefined)	Compound NOT metabolized

###

# test_description: The drug is tested on Bacteroides coprophilus strain: DSM18228 for biotransformation. The drug concentrations were measured before and after a 12-h incubation by liquid-chromatography-coupled mass spectrometry (LC–MS)
# setup_conditions: 2 µM
parameter_measured: Bacterial Biotransformation

compound	Bacterial Biotransformation
COc1ccc2[nH]c([S+]([O-])Cc3ncc(C)c(OC)c3C)nc2c1 (centres undefined) [OMEPRAZOLE]	Compound metabolized
CCOC(=O)C1=C(C)NC(C)=C(C(=O)OC)C1c1cccc([N+](=O)[O-])c1 (centres undefined) [NITRENDIPINE]	Compound NOT metabolized
OCCN1CCN(CCCN2c3ccccc3Sc3ccc(C(F)(F)F)cc32)CC1 [FLUPHENAZINE]	Compound NOT metabolized
NC(=O)N1c2ccccc2CC(=O)c2ccccc21 [OXCARBAZEPINE]	Compound metabolized
O=C1NCC2(CCN(CCc3ccccc3)CC2)O1 [FENSPIRIDE]	Compound metabolized
Cc1ccccc1N1C(=O)c2cc(S(N)(=O)=O)c(Cl)cc2NC1C (centres undefined) [METOLAZONE]	Compound NOT metabolized
CC(NC(C)(C)C)C(=O)c1cccc(Cl)c1 (centres undefined) [BUPROPION]	Compound metabolized
CN1CCN2c3ccccc3Cc3ccccc3C2C1 (centres undefined) [MIANSERIN]	Compound NOT metabolized

We next turn to a different compound, shown below.
Per the record, CCCCCCOC(=O)/N=C(/N)c1ccc(NCc2nc3cc(C(=O)N(CCC(=O)OCC)c4ccccn4)ccc3n2C)cc1.CS(=O)(=O)O [DABIGATRAN ETEXILATE MESYLATE] has Bacterial Biotransformation of Compound NOT metabolized

The values you see were collected from ChEMBL document CHEMBL5303573.
